# System: panel of more than 300 wild-type and mutant kinases (313 kinase panel) (Homo sapiens, UniProt Q05655)
# Protocol description: Kinase profiling in a biochemical assay panel (mobility shift assays and ELISA), %-inhibition at 1 μM; selectivity entropy
# Condition summary: kinase PKCδ; 1 μM
Readout kind: %-inhibition of PKCδ (%)
Reply with just the number (in %).

Before answering, review these 5 worked examples.
Give %-inhibition of PKCδ for the following compound: CO[C@H]1C[C@@H]2CC[C@@H](C)[C@@](O)(O2)C(=O)C(=O)N2CCCC[C@H]2C(=O)O[C@H]([C@H](C)C[C@@H]2CC[C@@H](OCCO)[C@H](OC)C2)CC(=O)[C@H](C)/C=C(\C)[C@@H](O)[C@@H](OC)C(=O)[C@H](C)C[C@H](C)/C=C/C=C/C=C/1C -10

Look up and state reported %-inhibition of PKCδ for CC(=O)Nc1cccc(-n2c(=O)n(C3CC3)c(=O)c3c(Nc4ccc(I)cc4F)n(C)c(=O)c(C)c32)c1 -4.75

Determine from records and report %-inhibition of PKCδ for CS(=O)(=O)CCNCc1ccc(-c2ccc3ncnc(Nc4ccc(OCc5cccc(F)c5)c(Cl)c4)c3c2)o1 -1.67

Return %-inhibition of PKCδ for the following compound: CO[C@H]1C[C@@H]2CC[C@@H](C)[C@@](O)(O2)C(=O)C(=O)N2CCCC[C@H]2C(=O)O[C@H]([C@H](C)C[C@@H]2CC[C@@H](OC(=O)C(C)(CO)CO)[C@H](OC)C2)CC(=O)[C@H](C)/C=C(\C)[C@@H](O)[C@@H](OC)C(=O)[C@H](C)C[C@H](C)/C=C/C=C/C=C/1C -4

For O=S(=O)(c1cccc2cnccc12)N1CCCNCC1 , write its %-inhibition of PKCδ. 19

New cases:
Note down %-inhibition of PKCδ recorded for Cc1ccc(Nc2nccc(N(C)c3ccc4c(C)n(C)nc4c3)n2)cc1S(N)(=O)=O -3

Item CCCS(=O)(=O)Nc1ccc(F)c(C(=O)c2c[nH]c3ncc(-c4ccc(Cl)cc4)cc23)c1F : provide %-inhibition of PKCδ -5

* * *

# System: panel of more than 300 wild-type and mutant kinases (313 kinase panel) (Homo sapiens, UniProt Q96PF2)
# Sequence (Q96PF2 1-358): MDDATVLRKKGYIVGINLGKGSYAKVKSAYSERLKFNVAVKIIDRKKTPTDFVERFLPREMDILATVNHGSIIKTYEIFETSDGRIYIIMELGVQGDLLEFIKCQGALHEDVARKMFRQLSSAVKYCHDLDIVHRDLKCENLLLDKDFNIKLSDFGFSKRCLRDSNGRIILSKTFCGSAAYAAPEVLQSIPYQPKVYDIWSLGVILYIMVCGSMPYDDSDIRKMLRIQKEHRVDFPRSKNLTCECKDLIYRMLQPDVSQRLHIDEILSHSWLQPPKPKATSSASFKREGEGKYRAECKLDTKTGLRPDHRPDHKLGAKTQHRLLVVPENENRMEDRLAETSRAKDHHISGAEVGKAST
# Protocol description: Kinase profiling in a biochemical assay panel (mobility shift assays and ELISA), %-inhibition at 1 μM; selectivity entropy
# Condition summary: kinase TSSK2; 1 μM
Measured %-inhibition of TSSK2 accompanies every entry in the list below.
Supply the numeric figure in %, leaving out any unit text.

Examples with their reported %-inhibition of TSSK2 follow.
Identify measured %-inhibition of TSSK2 corresponding to Cc1ccc(C(=O)Nc2ccc(CN3CCN(C)CC3)c(C(F)(F)F)c2)cc1C#Cc1cnc2cccnn12 -8

Item C[C@@H](Oc1cc(-c2cnn(C3CCNCC3)c2)cnc1N)c1c(Cl)ccc(F)c1Cl : provide %-inhibition of TSSK2 0.896

Output measured %-inhibition of TSSK2 for this item: COc1cc2c(Nc3ccc(Br)cc3F)ncnc2cc1OCC1CCN(C)CC1 -9

Please report the measured %-inhibition of TSSK2 for CO[C@H]1C[C@@H]2CC[C@@H](C)[C@@](O)(O2)C(=O)C(=O)N2CCCC[C@H]2C(=O)O[C@H]([C@H](C)C[C@@H]2CC[C@@H](OC(=O)C(C)(CO)CO)[C@H](OC)C2)CC(=O)[C@H](C)/C=C(\C)[C@@H](O)[C@@H](OC)C(=O)[C@H](C)C[C@H](C)/C=C/C=C/C=C/1C -0.179

Supply recorded %-inhibition of TSSK2 for CN(C)C/C=C/C(=O)Nc1cc2c(Nc3ccc(F)c(Cl)c3)ncnc2cc1O[C@H]1CCOC1 here. 2

Supply %-inhibition of TSSK2 value. Item: N#CC[C@H](C1CCCC1)n1cc(-c2ncnc3[nH]ccc23)cn1 -10

Then there is this molecule:
Find the measured %-inhibition of TSSK2 of CNC(=O)c1cc(Oc2ccc(NC(=O)Nc3ccc(Cl)c(C(F)(F)F)c3)c(F)c2)ccn1 and report it. -11
